Test system: BDF1 mice, Friend leukemia sc, tumor weight T/C
Experiment: NCI In Vivo Anticancer Drug Screen. Data for tumor model Friend Virus Leukemia (Solid) (subcutaneous) in B6D2F1 (BDF1) mice
Details: endpoint: mean tumor weight; dose: 37.5 mg/kg/injection; schedule: Q01DX011 (ip); vehicle: carboxymethylcellulose (CMC); higher = larger tumour
Inconclusive results are not listed.
endpoint.name: T/C

Examples from the recorded data:
S=C(N=Nc1ccccc1)NNc1ccccc1: 92 % of control
Clc1ccc2c(Cl)ncnc2c1: 59 % of control
CS(=O)(=O)OCCCCCCCCCOS(C)(=O)=O: 51 % of control
CCCCCCCCCCCCCCCCC(C(=O)O)C(O)(CC(=O)O)C(=O)O (configuration not stated): 100 % of control
NNc1nncc2ccccc12: 108 % of control
CCCCn1cnc2c(SC)nc(N)nc21: 98 % of control
O=c1[nH]c2cc(Cl)c(Cl)cc2o1: 81 % of control
CC(C)(c1ccccc1)c1ccc(O)cc1: 94 % of control
O=C(O)Cc1ccc(C2CCCCC2)cc1: 106 % of control
CCOC(N)=O: 68 % of control

# input Give T/C for `CCCSc1ncnc2nc[nH]c12`
# output 64 % of control

# input Tell us which T/C value is on record for `O=C(C[N+]12CN3CN(CN(C3)C1)C2)c1ccc(Cl)cc1`
# output 101 % of control
